Molecular target: T1, His-tagged P3028 (human, also: His-tag, terminus and sequence not given here)
T1 construct: in solution at 0.5 ug/mL over the peptide cards; found with anti-His-tag antibody and rabbit anti-mouse peroxidase (rampo); also called PGE73; not shown: His-tag
T1 peptide: VFDEFKPLVEEPQNLIK
Test: PEPSCAN chip ELISA, His-P3028 in solution;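 further: score is the raw OD at 405 nm from peroxidase colour with ABTS, imaged by CCD camera before and after staining, with wells showing air bubbles set to zero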
No end group written: not given here.
Reported endpoint: RAMPO Score (rampo score)
Please state the figure in rampo score; there is no need to write the unit.

Take a look at these entries with their results.
KKLDWFFVKLSLFTER [SEQ ID NO 311]    418
KFLDTFFVKLSLFTER [SEQ ID NO 421]    390
KKLDTFFVKLSLFTHR [SEQ ID NO 478]    318

Now for a further binder.
What value of measured RAMPO Score is listed for KKLDTFFVKLRLFTER [SEQ ID NO 464] ?
333
